Reported Thymus values for the following compounds.
- System: thymus weight in rats
- Protocol notes: Thymus inhibition testing (subcutaneous administration)
- Type: in vivo, rat
- Measurement conditions: Table VII, 10 mg/kg/day s.c., three days
Parameter: Thymus (mg)

CCOC(=O)O[C@]1(C(=O)OCCl)[C@H](C)C[C@H]2[C@@H]3CCC4=CC(=O)C=C[C@]4(C)[C@@]3(F)[C@@H](O)C[C@@]21C; 405
CCCC(=O)O[C@]1(C(=O)CO)CC[C@H]2[C@@H]3CCC4=CC(=O)CC[C@]4(C)[C@H]3[C@@H](O)C[C@@]21C [Hydrocortisone 17-butyrate, reference compound]; 65
CC(C)OC(=O)O[C@]1(C(=O)OCCl)CC[C@H]2[C@@H]3CCC4=CC(=O)CC[C@]4(C)[C@H]3[C@@H](O)C[C@@]21C; 386
CC(C)OC(=O)O[C@]1(C(=O)OCCl)CC[C@H]2[C@@H]3CCC4=CC(=O)C=C[C@]4(C)[C@H]3[C@@H](O)C[C@@]21C; 312

====

Reported Thymus wt. values for the following molecules.
- Tested on: granulation tissue formation caused by implantation of cotton pellets
- Protocol notes: Granuloma formation test (local cotton pellet granuloma assay)
- Type: in vivo, rat
- Measurement conditions: Table V-a, 10 μg/pellet
Parameter: Thymus wt.

CCCOC(=O)O[C@]1(C(=O)OCCl)[C@H](C)C[C@H]2[C@@H]3CCC4=CC(=O)C=C[C@]4(C)[C@@]3(F)[C@@H](O)C[C@@]21C; 547 ± 26 mg
CCOC(=O)O[C@]1(C(=O)OCCl)[C@@H](C)C[C@H]2[C@@H]3CCC4=CC(=O)C=C[C@]4(C)[C@@]3(F)[C@@H](O)C[C@@]21C; 421 ± 30 mg
CCC(=O)O[C@]1(C(=O)CCl)[C@@H](C)C[C@H]2[C@@H]3CCC4=CC(=O)C=C[C@]4(C)[C@@]3(F)[C@@H](O)C[C@@]21C [Clobetasol 17-propionate, reference compound]; 322 ± 22 mg
CCCCC(=O)O[C@]1(C(=O)CO)[C@@H](C)C[C@H]2[C@@H]3CCC4=CC(=O)C=C[C@]4(C)[C@@]3(F)[C@@H](O)C[C@@]21C [Betamethasone 17-valerate, reference compound]; 479 ± 25 mg

====

- Tested on: thymus weight in rats
- Protocol notes: Thymus inhibition testing (subcutaneous administration)
- Assay type: in vivo, rat
- Measurement conditions: Table X, dose required to achieve 40% inhibition of thymi weight, subcutaneous
Threshold check on TED40: at or above 20 mg gives 1, strictly below gives 0.

CC(C)OC(=O)O[C@]1(C(=O)OCCl)CC[C@H]2[C@@H]3CCC4=CC(=O)C=C[C@]4(C)[C@H]3[C@@H](O)C[C@@]21C; 0
CC(C)OC(=O)O[C@]1(C(=O)OCCl)CC[C@H]2[C@@H]3CCC4=CC(=O)CC[C@]4(C)[C@H]3[C@@H](O)C[C@@]21C; 1
CCOC(=O)O[C@]1(C(=O)OCCl)[C@H](C)C[C@H]2[C@@H]3CCC4=CC(=O)C=C[C@]4(C)[C@@]3(F)[C@@H](O)C[C@@]21C; 1
CCCCC(=O)O[C@]1(C(=O)CO)[C@@H](C)C[C@H]2[C@@H]3CCC4=CC(=O)C=C[C@]4(C)[C@@]3(F)[C@@H](O)C[C@@]21C [Betamethasone 17-valerate, reference compound]; 0
CCCC(=O)O[C@]1(C(=O)CO)CC[C@H]2[C@@H]3CCC4=CC(=O)CC[C@]4(C)[C@H]3[C@@H](O)C[C@@]21C [Hydrocortisone 17-butyrate, reference compound]; 0

Measured values drawn from patent US6610675B1 for this set.
